These measurements were taken from ChEMBL document CHEMBL1201862.

- System: 786-0
- protocol_description: NCI tumour cell line growth inhibition, 48 h
Calls of active or inactive are those of the source. Rule as the data show it: active = GI50 up to about 1.1 µM and inactive = higher.
Mark one answer only. Choices: active, inactive

Request: Assay outcome for `N#Cc1c(NC(=S)Nc2ccc(Cl)cc2)sc2c1CCN(N1CCc3c(sc(NC(=S)Nc4ccc(Cl)cc4)c3C#N)C1)C2` : what was it?
Result: inactive

Request: Consider next the compound `O=C1/C(=C/c2ccc(Cl)cc2)NC(=S)N1CN1CCCCC1` in the same way.
Result: inactive

Request: Consider next the compound `NC(=S)NNc1c([N+](=O)[O-])cnn(-c2ccccc2)c1=O` in the same way.
Result: inactive

Request: Consider next the compound C[C@H]1NC(=O)C2CCCCN2C(=O)CN(C)C(=O)CNC(=O)C2CCCCN2C(=O)[C@@H](NC(=O)c2nc3ccccc3cc2O)[C@@H](C)NC(=O)C2CCCCN2C(=O)CN(C)C(=O)CNC(=O)[C@@H]2CCCCN2C(=O)C1NC(=O)c1nc2ccccc2cc1O (stereo partly drawn) in the same way.
Result: active

Request: Consider next the compound Cc1ccc(S(=O)(=O)NC(=O)NC(Cc2ccccc2)C(=O)O)cc1 (stereo not drawn) in the same way.
Result: inactive

Request: Consider next the compound `COc1cc2c[n+]3ccc4cc(OC)c(OC)cc4c3cc2cc1O` in the same way.
Result: inactive

Request: Consider next the compound `O=C(O)c1ccc([N+](=O)[O-])c2c(=O)c3ccccc3[nH]c12` in the same way.
Result: inactive

Request: Consider next the compound `CCOP(=O)(OCC)/C(C#N)=C/c1cccn1Cc1ccccc1` in the same way.
Result: inactive

* * *

- System: RXF 631
- protocol_description: NCI tumour cell line growth inhibition, 48 h
Active and inactive are the calls of the source. No stated cut-off is given here; in the data, active = GI50 up to about 1.1 µM and inactive = higher.
Exercise: state measured GI50 for each of the compounds provided.

Request: Form field: reported GI50 of `O=C1CCNC/C1=C\c1ccccc1`
Result: 26.5 µM (inactive)

Request: Consider next the compound `COC(=O)c1c(OC)cccc1C(=O)O` in the same way.
Result: > 100 µM (inactive)

Request: Consider next the compound `CCc1ccccc1NC(=O)/C(CC(=O)c1c(C)[n+]([O-])c2ccccc2[n+]1[O-])=N\NS(=O)(=O)c1ccc(C)cc1` in the same way.
Result: > 100 µM (inactive)

Request: Consider next the compound CC1(C)COC(C2(C)C(=O)C=C(c3ccccc3)c3ccccc32)=N1 (stereo not given) in the same way.
Result: 33 µM (inactive)

Request: Consider next the compound CC(C)CCC1CC2C(=O)N(c3ccccc3)C(=O)C2c2[nH]c3ccccc3c21 (stereo not given) in the same way.
Result: 1.26 µM (inactive)

* * *

- System: A498
- protocol_description: NCI tumour cell line growth inhibition, 48 h
Where a name gives a salt, the structure may show the parent alone. Calls of active or inactive are those of the source. Cut-off read from the data, not from the text of the source: active = GI50 up to about 1.1 µM and inactive = higher.
measurement_name: GI50

Request: Form field: reported GI50 of `COc1ccccc1/N=N/c1c(O)c(S(=O)(=O)O)cc2cc(S(=O)(=O)O)ccc12`
Result: > 100 µM (inactive)

Request: Consider next the compound `COc1cc2c(cc1O)[C@H](Cc1ccc(Oc3cc(C[C@H]4c5cc(OC)c(OC)cc5CCN4C)ccc3OC)cc1)NCC2` in the same way.
Result: 13.7 µM (inactive)

Request: Consider next the compound `C=CCN1CCN([C@H](c2ccc(C(=O)N(CC)CC)cc2)c2cccc(OC)c2)CC1` in the same way.
Result: > 25 µM (inactive)

Request: Consider next the compound CCCCC(C(=O)CCC(=O)Nc1ccc(Cl)cc1)C(=O)C(C)C (stereo not given) in the same way.
Result: > 100 µM (inactive)

Request: Consider next the compound `COc1cccc2c(Nc3ccc(S(=O)(=O)NC(C)=O)cc3)c3ccc([N+](=O)[O-])cc3nc12` in the same way.
Result: 56.8 µM (inactive)

Request: Consider next the compound `CCOC(=O)c1cc(C)nc2c1c(=O)n(-c1ccccc1)c(=O)n2CCCCN1CCN(c2ncccn2)CC1` in the same way.
Result: 20.8 µM (inactive)

Request: Consider next the compound Cc1ccc(S(=O)(=O)OC2C(C3COC(C)(C)O3)OC3OC(C)(C)OC32)cc1 (stereo not given) in the same way.
Result: > 100 µM (inactive)

Request: Consider next the compound COC1=CC(C)C2C[C@H]3O[C@H](O)C[C@H]4C(C)C(=O)C(O)C([C@@]2(C)C1=O)[C@@]34C (stereo not given in full) in the same way.
Result: > 100 µM (inactive)

Request: Consider next the compound `O=[N+]([O-])c1cccc2nc3ccccc3c(NCCC[N+]3([O-])CCCCC3)c12` in the same way.
Result: 0.804 µM (active)

Request: Consider next the compound CCc1ccc2c(c1)N(CC(C)CN(C)C)c1ccccc1S2 (stereo not given) [ETYMEMAZINE HYDROCHLORIDE] in the same way.
Result: 7.38 µM (inactive)

Request: Consider next the compound `Nc1ccn(C=C=CCO)c(=O)n1` in the same way.
Result: > 100 µM (inactive)

Request: Consider next the compound `COc1cc(/C=N/c2nncs2)ccc1O` in the same way.
Result: > 100 µM (inactive)

Request: Consider next the compound `c1cc(-c2ccc(-c3ccsc3)s2)cs1` in the same way.
Result: 46.6 µM (inactive)

Request: Consider next the compound `O=C1CCNC/C1=C\c1ccccc1` in the same way.
Result: > 100 µM (inactive)

Request: Consider next the compound CC(C)=CC(=O)O[C@@H]1CC(C)(C)CC2C3=CCC4[C@]56CC[C@](O)(OC5)C(C)(C)C6CC[C@@]4(C)C3(C)CC[C@]21C(=O)O (stereo not given in full) in the same way.
Result: > 100 µM (inactive)

Request: Consider next the compound NC(CCSCC(F)F)C(=O)O (stereo not given) in the same way.
Result: > 100 µM (inactive)

Request: Consider next the compound `CC(=O)/N=C1/N(/C=C2\C(=O)Oc3ccccc3C2=O)C(=O)/C(=C/c2ccc(Cl)cc2Cl)N1C` in the same way.
Result: 19.2 µM (inactive)

Request: Consider next the compound `Cc1ccc(-c2c(C#N)c(-c3ccc(Cl)cc3)c(C#N)c(=O)n2NS(=O)(=O)c2ccc(C)cc2)cc1` in the same way.
Result: 35 µM (inactive)

Request: Consider next the compound `O=C(COc1ccc(OCC(=O)N2C(=O)CC(=O)N(c3ccc(Cl)cc3)C2=S)cc1)N1C(=O)CC(=O)N(c2ccc(Cl)cc2)C1=S` in the same way.
Result: 47.3 µM (inactive)

Request: Consider next the compound COc1ccc(N2C(=O)C3CC4=CC(=O)C[C@H]4[C@H]32)cc1 (stereo not given in full) in the same way.
Result: > 100 µM (inactive)

* * *

- Test system: CCRF-CEM
- protocol_description: NCI tumour cell line growth inhibition, 48 h
Where a name gives a salt, the structure may show the parent alone. The source made the active and inactive calls. Rule as the data show it: active = GI50 up to about 1.1 µM and inactive = higher.
Mark one answer only. Choices: 1 (active), -1 (inactive)

Request: Assay outcome for `Nc1nc(Nc2ccccc2)sc1C(=O)c1cccs1` : what was it?
Result: -1

Request: Consider next the compound CC(NNC(=O)c1cc[n+]([BH2-]C#N)cc1)c1ccc(F)cc1 (stereo not drawn) in the same way.
Result: -1

Request: Consider next the compound `COc1ccc(-c2cc(=O)c3ccccc3o2)cc1N` in the same way.
Result: -1

Request: Consider next the compound `c1ccc([P+](c2ccccc2)(c2ccccc2)C2c3ccccc3-c3ccccc32)cc1` in the same way.
Result: -1

Request: Consider next the compound COC1=CC(C)C2C[C@H]3O[C@H](O)C[C@H]4C(C)C(=O)C(O)C([C@@]2(C)C1=O)[C@@]34C (stereo partly drawn) in the same way.
Result: -1

Request: Consider next the compound `C[n+]1cccc(NC(=O)c2ccc(NC(=O)C34CCC(C(=O)Nc5ccc(C(=O)Nc6ccc[n+](C)c6)cc5)(CC3)CC4)cc2)c1` in the same way.
Result: -1

Request: Consider next the compound `CCCCn1c2c(n(CCCC)c1=S)-c1c(n(CCCC)c(=S)n1CCCC)SSSS2` in the same way.
Result: 1

Request: Consider next the compound COc1cccc2c1C(CO)N1C(C#N)C3CC(C(=O)O)C(C1C2)N3C (stereo not drawn) in the same way.
Result: 1

Request: Consider next the compound CCOC(=O)C1(Cc2ccccc2)CCN(C(=O)c2ccccc2)C2C1C2(Cl)Cl (stereo not drawn) in the same way.
Result: -1

Request: Consider next the compound c1ccc(CC(Nc2cccnc2)c2ccccc2)cc1 (stereo not drawn) in the same way.
Result: -1

Request: Consider next the compound `Clc1ncc(C(Cl)(Cl)Cl)nc1-c1ccccc1` in the same way.
Result: -1

Request: Consider next the compound CC(=O)OCC12C(OC(C)=O)C[C@@H](C)C3(CC(c4ccoc4)OC3=O)C1CCC(OC(C)=O)C21CO1 (stereo partly drawn) in the same way.
Result: -1

Request: Consider next the compound `c1ccc(/N=C(\N2CCOCC2)N(CCN2CCOCC2)c2ccccc2)cc1` in the same way.
Result: -1

Request: Consider next the compound `Cn1c(CCC#N)nc2ccc(Br)cc2c1=O` in the same way.
Result: -1

Request: Consider next the compound `CS/C(=N\c1nccs1)NC(=O)c1cccc(Cl)c1` in the same way.
Result: -1

Request: Consider next the compound CC(=O)Nc1ccc(C(=O)NN2C(=O)CSC2c2ccc([N+](=O)[O-])cc2)cc1 (stereo not drawn) in the same way.
Result: -1

Request: Consider next the compound CC1CCC2(C(=O)O)CCC3(C)C(=CCC4C5(C)CC(O)C(O)C(C)(CO)C5C(O)CC43C)C2C1C (stereo not drawn) in the same way.
Result: -1

Request: Consider next the compound `N#CC1(C#N)[C@@H]2CCC=C(Sc3ccccc3)[C@@H]21` in the same way.
Result: -1

Request: Consider next the compound O=C1C2C(C(=O)N1OS(=O)(=O)c1ccccc1)N(Cc1ccccc1)C(=O)N2Cc1ccccc1 (stereo not drawn) in the same way.
Result: -1

Request: Consider next the compound `CCOC(=O)NC(=O)c1cn(CCCOC(=O)NCCCCCCNC(=O)OCCCn2c(=O)c(C(=O)NC(=O)OCC)cn(C)c2=O)c(=O)n(C)c1=O` in the same way.
Result: -1

Request: Consider next the compound O=C1NC(Cc2ccccc2)C(=O)N2CCCC12 (stereo not drawn) in the same way.
Result: -1

Request: Consider next the compound `CC1(C)C=Cc2c(cc(O)c3c(=O)c4cc(Cl)ccc4[nH]c23)O1` in the same way.
Result: -1

Request: Consider next the compound COC(=O)CN1C(=O)C2(C(=O)OC)OC1(c1ccc([N+](=O)[O-])cc1)C1C(=O)N(c3ccccc3)C(=O)C12 (stereo not drawn) in the same way.
Result: -1

Request: Consider next the compound `C/C(=N\NC(N)=S)c1cccs1.OB(O)c1ccccc1` in the same way.
Result: -1

Request: Consider next the compound C[C@H]1[C@@H]2C[C@@H]3O[C@@]34[C@H]3CCC5Cc6nc7c(nc6C[C@@]5(C)[C@]3(O)CC(=O)[C@@]24CO[C@]12OC(C)(C)C[C@@H]2O)CC1CC[C@@H]2C3=C[C@H]4O[C@@]5(OC(C)(CO)C[C@@H]5O)[C@H](C)[C@@]4(O)[C@]3(C)[C@@H](O)CC2[C@]1(C)C7 (stereo partly drawn) in the same way.
Result: 1

Request: Consider next the compound `COc1ccc(-c2nnc3c4ccccc4sn23)cc1` in the same way.
Result: -1

Request: Consider next the compound `COc1ccc(N2/C(=N/c3ccccc3)SC(=N/S(=O)(=O)c3ccccc3)/C2=N\S(=O)(=O)c2ccccc2)cc1` in the same way.
Result: -1

Request: Consider next the compound CC(=O)O[C@H]1[C@@H](OC2CCCC2(c2ccccc2)c2ccccc2)O[N+]([O-])=C[C@@]12COCc1cc3c(cc12)OCO3 (stereo partly drawn) in the same way.
Result: -1

Request: Consider next the compound COC(=O)C(=O)C(C(=O)C(=O)Nc1ccc(C)cc1C)c1nc2ccc(Cl)cc2nc1O (stereo not drawn) in the same way.
Result: -1

Request: Consider next the compound `CC(C)OP(=O)(OC(C)C)/C(Cl)=N/Nc1ccc([N+](=O)[O-])cc1` in the same way.
Result: -1

Request: Consider next the compound `COc1cccc2c(Nc3ccc(S(=O)(=O)N=C(N)N)cc3)c3ccc([N+](=O)[O-])cc3nc12` in the same way.
Result: -1

Request: Consider next the compound `Oc1cc(Br)cc2cc(Br)cnc12` in the same way.
Result: -1

Request: Consider next the compound CCc1ccc2c(c1)N(CC(C)CN(C)C)c1ccccc1S2 (stereo not drawn) [ETYMEMAZINE HYDROCHLORIDE] in the same way.
Result: -1

Request: Consider next the compound `COc1ccc(O)c2c(=O)ccccc12` in the same way.
Result: -1

Request: Consider next the compound `O=c1c2cccnc2n2n1Cc1ccccc1C2` in the same way.
Result: -1

Request: Consider next the compound `COc1cc(/C=C\c2ccncc2)cc(OC)c1OC` in the same way.
Result: -1

Request: Consider next the compound `NCCNc1nc(N2CCCC2)c2nc(Cl)c(NCc3ccccc3)nc2n1` in the same way.
Result: -1

Request: Consider next the compound `c1cc2c(cc1NC1=NCCO1)CCC2` in the same way.
Result: -1
